# Test system: Saccharomyces cerevisiae
# ASSAY: protein stability index of tFT-peptide fusion (C-terminal peptide) (PSI (0-1 scale)); higher = more stable (slower turnover)
# CONDITION PARAMETERS: genetic background: wild type; temperature: 30 C
QUANTITY KIND: protein stability index
Give bare numbers.

Below, each entry is followed by its recorded protein stability index result.
>  <RESIDUE SEQUENCE>
PSSLFPPPPSVL

>  <ASSAY RESULT>
0.685

$$$$
>  <RESIDUE SEQUENCE>
VHWAALRSVLRG

>  <ASSAY RESULT>
0.699

$$$$
>  <RESIDUE SEQUENCE>
ALLPPPCFFLLP

>  <ASSAY RESULT>
0.673

$$$$
>  <RESIDUE SEQUENCE>
PPPSTPLSPSSP

>  <ASSAY RESULT>
0.72

$$$$
>  <RESIDUE SEQUENCE>
GWLCARGSSSRP

>  <ASSAY RESULT>
0.649

$$$$
>  <RESIDUE SEQUENCE>
IDLTLLRHPAYL

>  <ASSAY RESULT>
0.732

$$$$

Kindly give each listed record's protein stability index.
1. PLLSATLTRRLA
2. GGPGGGGVSDGM

Ans.
1: 0.475; 2: 0.804

====

Please go through the items and note down their protein stability index.
# System: Saccharomyces cerevisiae
# ASSAY: protein stability index of tFT-peptide fusion (C-terminal peptide) (PSI (0-1 scale)); higher = more stable (slower turnover)
# CONDITION PARAMETERS: genetic background: wild type; temperature: 30 C
Numbers only.

>  <RESIDUE SEQUENCE>
YTLMEERTKKDN

>  <TARGET UNDER TEST>
Saccharomyces cerevisiae

>  <ASSAY RESULT>
0.742

$$$$
>  <RESIDUE SEQUENCE>
FVVVGLGLLCLA

>  <TARGET UNDER TEST>
Saccharomyces cerevisiae

>  <ASSAY RESULT>
0.473

$$$$
>  <RESIDUE SEQUENCE>
GQCRFVEDVYVT

>  <TARGET UNDER TEST>
Saccharomyces cerevisiae

>  <ASSAY RESULT>
0.685

$$$$
>  <RESIDUE SEQUENCE>
TGQVLKYVVGSQ

>  <TARGET UNDER TEST>
Saccharomyces cerevisiae

>  <ASSAY RESULT>
0.711

$$$$
>  <RESIDUE SEQUENCE>
IVSPSYGEGSIR

>  <TARGET UNDER TEST>
Saccharomyces cerevisiae

>  <ASSAY RESULT>
0.695

$$$$
>  <RESIDUE SEQUENCE>
YADTCEGDNLTS

>  <TARGET UNDER TEST>
Saccharomyces cerevisiae

>  <ASSAY RESULT>
0.661

$$$$
>  <RESIDUE SEQUENCE>
DICCGLCGLLPR

>  <TARGET UNDER TEST>
Saccharomyces cerevisiae

>  <ASSAY RESULT>
0.658

$$$$
>  <RESIDUE SEQUENCE>
GPKTFIRSTKEI

>  <TARGET UNDER TEST>
Saccharomyces cerevisiae

>  <ASSAY RESULT>
0.697

$$$$
>  <RESIDUE SEQUENCE>
PLRVATTLGYPL

>  <TARGET UNDER TEST>
Saccharomyces cerevisiae

>  <ASSAY RESULT>
0.649

$$$$
>  <RESIDUE SEQUENCE>
VTISLGVGGGMQ

>  <TARGET UNDER TEST>
Saccharomyces cerevisiae;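 further: PSI is a weighted mean of sequencing reads over stability bins, variants kept only with over 10 reads, mCherry proximal and sfGFP distal, peptide attached via GGGS linker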

>  <ASSAY RESULT>
0.725

$$$$

# return protein stability index for each item in the list
1. SPSPHPQPLIPL
2. AILSTSHSPWNS
3. QTVSISGVPDGF
4. LLMCCLPFLWVF
5. KGGCGAGRDGRG
6. GETQAAGAKYLG

Ans.
[0.681, 0.737, 0.667, 0.306, 0.731, 0.724]

// batch mode: one protein stability index value per listed entry
1. PFLLFVSSTCPL
2. VGTRVGCEAGVV
3. TNTPSYSSRAEF

Ans.
1. 0.605
2. 0.637
3. 0.733
